tested on: MS2 coat protein; test: apparent KD of MS2 coat protein; designed switch direction (-1 OFF switch, 1 ON switch): -1; higher = weaker reporter binding; conditions: Eterna round: R95; input ligand: FMN 200 uM
# key: entry, value: apparent KD of MS2 coat protein
Please reply with the bare figure in nM and do not write the unit itself.

Check out these entries, answers already filled in.
[[record]]
record_sequence = "CUGAGGUAGCGGUCCUAUGACAUGAGGAUCACCCAUGUACCUUGCUUCGAGCUUUUAGCUCGUCUUAUGAUUCUCGG [Mat - Sensor v3 - turn-off var 1 - JL Mod - D36] (puzzle: Sensor v3, turn-off variant 1)"
metric_name = "apparent KD of MS2 coat protein"
endpoint_value = 423

[[record]]
record_sequence = "CCGAGGUGGCGGUCCUAUGACAUGAGGAUCACCCAUGUACCUCGCCACGAGCCUUUUGCUCAUCUUAUAAUUCUCGG [Bienve] (puzzle: Sensor v3, turn-off variant 1)"
metric_name = "apparent KD of MS2 coat protein"
endpoint_value = 17.4

[[record]]
record_sequence = "AAUAACAAGUAAGAUCCUAACAUGAGGAUCACCCAUGUGCUCGUCUUGUAAAGUACUAUCACGAAAGUGAUAGUACA [Sensor 3, v1 - 51] (puzzle: Sensor v3, turn-off variant 1)"
metric_name = "apparent KD of MS2 coat protein"
endpoint_value = 48.3

[[record]]
record_sequence = "GAAAAGGUAGGAUAUACGAAAAUAAAGGGUAGAAAUAAAACACAUGAGGAUCACCCAUGUAGAAGGACCAAAAG [salish99_ex2_r3_096] (puzzle: Exclusion 2)"
metric_name = "apparent KD of MS2 coat protein"
endpoint_value = 70.6


Item: GAAAAGGUAGGAUAUACGAGAAAAAAGGGUAGAAAAAAAACACAUGAGGAUCACCCAUGUAGAAGGACCAAAAG [salish99_ex2_r3_029] (puzzle: Exclusion 2) | apparent KD of MS2 coat protein: 35.5

====

system: K4 kissing-loop RNA reporter; assay: apparent KD of K4 kissing-loop reporter; higher = weaker reporter binding; details: Eterna round: R107; input ligand: tryptophan 2.4 mM
metric name: apparent KD of K4 kissing-loop reporter (nM)
Supply the numeric figure in nM, leaving out any unit text.

Answered examples (2):
[[record]]
record_sequence = "UGCAUGCGUAGAGUGAUGUUCUAAGAUGAUACCAGUGCGGAAACGCACCCUUGGCAGCAUCUGACUGCAUGCACGUCGAAAGACG"
metric_name = "apparent KD of K4 kissing-loop reporter"
endpoint_value = 598

[[record]]
record_sequence = "UCGUCUGUGUGAGGAUAUCCAAGCGAGCUGCGUAAAGGCGCGGCGUUUGGAGUGAUGUUCCAGGCAGGAGAAGGCGCACGGGCUU [Maleisar]"
metric_name = "apparent KD of K4 kissing-loop reporter"
endpoint_value = 292


Now examine the next entry.
Lab note: measured apparent KD of K4 kissing-loop reporter of GGAUAACAGGCAGGAUAUGCUUAGUAGUAAGGCCAUAUAUACGUAUAGAGUGAUGUUUUGUACAAGGCAGAAGGGCUAAAUCCAU [FMN B Excl V2 (+4G)] was 254

====

tested on: MS2 coat protein; experiment: apparent KD of MS2 coat protein; higher = weaker reporter binding; conditions: Eterna round: R107; input ligand: theophylline 2 mM
// reported apparent KD of MS2 coat protein for each item listed
The reply should be a number in nM, with the unit left off.

# example entries with known answers
[[record]]
record_sequence = "AGCCCGUGAGCGGCCGCCACUGGAGGCUUUGCGCGACAUGAGGAUCACCCAUGUGUGCCCGGCGUUAGGACCGGGUUCACGUGGU [#1 Same State - Tryptophan B Attempt #19 (HarryS)]"
units_text = "nM"
endpoint_value = 838

[[record]]
record_sequence = "GCCUCAUGUAGAAGGAGCGUCAGAAGCUACAGACAUGAGGAUCACCCAUGUUAGUUGAUCUGACAGGUAGGUCGCUACAGCAGGA [Arg B SS t7]"
units_text = "nM"
endpoint_value = 41.1

[[record]]
record_sequence = "AGCUCGCAUCCUCAAGCGUCAAAGACGCGUCGAGGACCGGUACGGCCGCCACUCGACCUGAGGAACACCCAGGUCCUCGCGAGCA [TrypAX 7 #SwitchBubble #AlternativeMS2 #MS2Late #CuTurnoff]"
units_text = "nM"
endpoint_value = 34.9

[[record]]
record_sequence = "AAAAUAAAAUAAAAGGUGGAAAUAAGGCGGCGAGGACCGGUACGGCCGCCACUCGCGUACAUGAGGAUCACCCAUGUCUGAAAAU [Same State - Tryptophan A (Freestyle 1)]"
units_text = "nM"
endpoint_value = 26.6

[[record]]
record_sequence = "GUACAUGAGGAUCACCCAUGUAUAGUUGAAGGAGCGACCAGAGGGUCAGGUAGGUCGCAGCACAUGAGGUAAGCCCGUGUAUGCU [#1 Exclusion - Arginine A Attempt #19 (Inspired by Pi)]"
units_text = "nM"
endpoint_value = 35.1


// next entry
Notebook: UACUUGCUGACGGCCGCCACUAGAACAUGAGGAUCACCCAUGUACGGCGGCCGUCAUGGGUGGACUAGGACCGGGUCAGCAAGAU [(Trp1)-(Ms2)-(T)'-(M)'-(Trp2)_Design6] , apparent KD of MS2 coat protein read as 13.9

====

test system: K4 kissing-loop RNA reporter; assay: apparent KD of K4 kissing-loop reporter; higher = weaker reporter binding; details: Eterna round: R107; input ligand: arginine 13.2 mM
Lab note: anything with apparent KD of K4 kissing-loop reporter at or over 100 nM counts as TRUE; the rest go in FALSE.

[[record]]
record_sequence = "GGUAGCAUGGCGGCCGCCACUAUAAAGAAUCCAAAGGAUUCUAGGUAGUGAUGUUACCAUAGCUAUAGGACCGGGCCAUGCUACC"
group_label = "TRUE"

[[record]]
record_sequence = "AGAGUUUUAUGAGGAUAUGAGAUAGUUAAUGAGUGAGUUAUAGUGUAGUUUGGUUAGUGAUGUUAUUUAGAAGGCGUGAGUGAUG [zzfzmullin]"
group_label = "FALSE"


Entry GGGCGUUACGGAGUGAUGUUCCGUAGCGAUACCAGCCAUUGCGAUGGCCCUUGGCAGCGCUAUAAGCAUAGAAUUGUAGCGCUUA [Theo A Ex t7b] : is its apparent KD of K4 kissing-loop reporter no less than 100 nM?
FALSE

Given GGGUGGCAGGCGGCCGCCACUCUGAGGGUCCACAGUGAUGUUGUGGGCGCGUAAGCGUCUUCAUAGAGGACCGGGUUUGUUGUUC [Same State Tryptophan B GF 24] , state whether its apparent KD of K4 kissing-loop reporter is at least 100 nM.
TRUE

Determine whether this sequence has apparent KD of K4 kissing-loop reporter no lower than 100 nM: GCGGGCGGCUGAAGGAGCGGGCGGGCCCGAGUGAUGUUCGGGUGGGCUGUGAGGCCCGGAGCCCAGGUAGGUCGCGGUUCCGCCC [#2 Same State - Arginine B Attempt #26 (HarryS)]
TRUE

Please tell me: is the sequence GUUUCAGUGAUGUUGGAAGGCGAGCGGGAUACCAGCCAAGACUCAGGCCCUUGGCAGCCCACAUAUCCCACGUAGAUAGUAGCUC [Same State - Theophylline A (Freestyle 14)] at or over 100 nM in terms of apparent KD of K4 kissing-loop reporter?
TRUE

====

test system: MS2 coat protein; test: apparent KD of MS2 coat protein, switch OFF state (with FMN for OFF switches, without FMN for ON switches); designed switch direction (-1 OFF switch, 1 ON switch): 1; higher = weaker reporter binding; details: FMN input: 0 or 200 uM; Eterna round: R93 (includes R88 designs)
Overview of reported apparent KD of MS2 coat protein across a group of sequences:
Value expressed in nM; do not type the unit.

Worked examples follow.
[[record]]
record_sequence = "AGGAAACAUGAGGAUCACCCAUGUAAAAAUAUGGGAGGAUAUACGAAGACGAAAGUAAAAGUAGAAGGCCUAAAAG [Garnet 15]"
units_text = "nM"
endpoint_value = 108

[[record]]
record_sequence = "AAUAUAUUAUUUAAGGAUAUCAUAGGAAACACAUGAGGAUCACCCAUGUGGGAAACUUGGUCGGGUGAGAAGGUGGAUAAUAUAU [Samwise Clockwise 36 - Jieux - Same State 2]"
units_text = "nM"
endpoint_value = 24.6


Next sequence, please.
// field: apparent KD of MS2 coat protein; key: AAAAGACAUGAGGAUCACCCAUGUCAAGACGUAGGAGGAUAUGUCUUGAAAAAAGACUUGACAGAAGGCCUGUGUC [SS1 - 55] ; value = 18.1

====

Below, each entry is listed alongside its reported apparent KD of K4 kissing-loop reporter.
system: K4 kissing-loop RNA reporter; test: apparent KD of K4 kissing-loop reporter; higher = weaker reporter binding; conditions: Eterna round: R107; input ligand: tryptophan 2.4 mM;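 further: bound reporter read as fluorescence of individual clusters on recovered sequencing chips by microscopy, with normalized cluster intensities fitted with a binding model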
State just the number; it will be interpreted in nM.

Worked cases, answers included:
[[record]]
record_sequence = "UUUGGUUUCUCGGCCGCCACUCGUUGUCUAUGGGCUUCAGGGAUAUAGUGAUGUUAUGUAUAGAAGAGGACCGGGAGAAGGUUUU [ExTryptoB.Dv]"
units_text = "nM"
endpoint_value = 161

[[record]]
record_sequence = "CCGCCGGUCGGAAGGAGCGCACGCCAGAGUGAUGUUCUGGCGCGGGCACUUUAUGCCCGCGUGCAGGUAGGUCGCCGAUUCUGGC [Mabema]"
units_text = "nM"
endpoint_value = 417

[[record]]
record_sequence = "UGAUACCAGACGGCCGCCACUCCUGCAGUCAAAGACUGCUAAGGAAUAUUCGUCCAGUGAUGUUGGAGGACCGGGUCUGGUAUCU [TrypBX 12 #SwitchBubble #Palindromic #StaticStem]"
units_text = "nM"
endpoint_value = 979

[[record]]
record_sequence = "AAAACUCCGGGUAGUGAUGUUACCUAGGAUACCAGUAUCGCAACAUACCCUUGGCAGCCUCUUCCUGCUGGCGUCGCUUGGCCUA [theeternabot_exclusion_KL_Theo_A_42]"
units_text = "nM"
endpoint_value = 75.1

[[record]]
record_sequence = "AAGGUUCGUGGAAGGAGCGCCCGUGCGACUCGUUCAGUAAGUGAAGUCCGAGUGAUGUUCGGGCAGGUAGGUCGCCACGGGCAAA [Usontezaon]"
units_text = "nM"
endpoint_value = 157


Now look at this one.
apparent KD of K4 kissing-loop reporter for ACGGAGUGAUGUUCCGGCCUCCCAGCAGAUACCAGCAGUCGCGAUUGCCCUUGGCAGCUGUCCGCGGCAUCCACUUGUAGCGGUA [theeternabot_exclusion_KL_Theo_A_12] is 197
